# Tested on: ACHN
# Assay Overview: NCI tumour cell line growth inhibition, 48 h
The source made the active and inactive calls. Cut-off read from the data, not from the text of the source: active = GI50 up to about 1.1 µM and inactive = higher.
Quantity Name: GI50

Examples with answers:
| Compound | Test Result |
| --- | --- |
| COc1ccc(/N=C2\C(=N/c3ccc(OC)cc3)N(S(=O)(=O)c3ccccc3)C(=S)N2c2ccccc2)cc1 | > 100 µM (inactive) |
| O=[N+]([O-])c1ccc(/C=C(/c2ccc([N+](=O)[O-])o2)S(=O)(=O)c2ccccc2)o1 | 2.84 µM (inactive) |
| C#CCNC(=O)NCCCCC(NC(C)=O)C(=O)NCc1ccccc1 (configuration not stated) | > 100 µM (inactive) |
| COc1cc(/C=C2\Sc3scc(-c4cccc([N+](=O)[O-])c4)[n+]3C2=O)cc(OC)c1OC | 14.9 µM (inactive) |
| COc1cc(-c2cc(=O)c3c(O)c(OC)c(OC)c(OC)c3o2)cc(OC)c1OC | 3.33 µM (inactive) |

Now look at this one.
Reported GI50 of `O=c1ccn(CC2(CO)CCCC2)c(=O)[nH]1` : > 100 µM (inactive)
